System: Mouse microglia
TEST_NAME: Cell viability (CellTiter-Glo), mouse microglia
Format: cell-based
CONDITIONS_USED: 50 μM, CellTiter-Glo
METRIC_NAME: Cell viability (%) Mouse microglia 50 μM
Report as a plain number; the unit % is understood.

Note to self: Cell viability (%) Mouse microglia 50 μM recorded for C#Cc1ccc2c(c1)C(c1ccccc1F)=NCc1c(-c3cnco3)ncn1-2 [KRM-II-18B] was 100

Entry CC1N=C(c2ccccc2F)c2cc(C#C[Si](C)(C)C)ccc2-n2cnc(-c3cnco3)c21 (centres unmarked) [GL-III-77] ; Cell viability (%) Mouse microglia 50 μM = 98

Measured Cell viability (%) Mouse microglia 50 μM of O=C(O)c1ncn2c1CN=C(c1ccccc1)c1cc(Br)ccc1-2 [GL-I-50] : 88

Memo: C#Cc1ccc2c(c1)C(c1ccccc1F)=N[C@@H](C)c1c(-c3nc(C(C)C)no3)ncn1-2 [GL-I-81] , reported Cell viability (%) Mouse microglia 50 μM: 94

// recorded Cell viability (%) Mouse microglia 50 μM for C#Cc1ccc2c(c1)C(c1ccccc1F)=NC(C)C(=O)N2C (centres unmarked) [GL-III-25] : 98

// Cell viability (%) Mouse microglia 50 μM value for C#Cc1ccc2c(c1)C(c1ccccc1F)=NC(C)c1c(C(=S)NC3CC3)ncn1-2 (centres unmarked) [GL-III-87] : 100

# Cell viability (%) Mouse microglia 50 μM of C#Cc1ccc2c(c1)C(c1ccccn1)=N[C@H](C)c1c(C(=O)OCC)ncn1-2 [GL-II-19] = 100

Lab note: measured Cell viability (%) Mouse microglia 50 μM of C#Cc1ccc2c(c1)C(c1ccccn1)=NCc1c(-c3cnco3)ncn1-2 [KRM-II-81] was 100

###

METRIC_NAME: IC50 (nM)
All answers are understood in nM, so give the number only.

Form: item `C#Cc1ccc2c(c1)C(c1ccccc1F)=N[C@H](C)c1c(-c3nc(C(C)C)no3)ncn1-2` ; test system KOR (κ opioid receptor) (Homo sapiens, UniProt P41145); IC50: 351

###

System: RAW macrophages
TEST_NAME: NO production (Griess assay), LPS/IFNγ-activated RAW264.7 macrophages
Format: cell-based, mouse
CONDITIONS_USED: Mus musculus, Macrophage, 24 h
METRIC_NAME: inhibition at 10 µM (%)
Express the result in % but write the number alone.

Entry `C#Cc1ccc2c(c1)C(c1ccccc1F)=N[C@H](C)c1c(C(=O)NC)ncn1-2` ; assay system RAW macrophages; inhibition at 10 µM recorded at 9

The observed inhibition at 10 µM for `C[C@H]1N=C(c2ccccc2F)c2cc(Br)ccc2-n2cnc(-c3cnco3)c21` when tested with RAW macrophages stands at 0

Simply: `C#Cc1ccc2c(c1)C(c1ccccc1F)=N[C@H](C)c1c(-c3cnco3)ncn1-2` , RAW macrophages, inhibition at 10 µM = 1

Log: RAW macrophages, molecule `C#Cc1ccc2c(c1)C(c1ccccn1)=N[C@H](C)c1c(C(=O)OC)ncn1-2` , inhibition at 10 µM = 6

###

Would you kindly list pKi for each of these compounds?
SYSTEM_TESTED: KOR (κ opioid receptor) (Homo sapiens, UniProt P41145)
Construct: expressed in transfected cells; host or cells: HEK293 (stably transfected)
Sequence (P41145 whole entry): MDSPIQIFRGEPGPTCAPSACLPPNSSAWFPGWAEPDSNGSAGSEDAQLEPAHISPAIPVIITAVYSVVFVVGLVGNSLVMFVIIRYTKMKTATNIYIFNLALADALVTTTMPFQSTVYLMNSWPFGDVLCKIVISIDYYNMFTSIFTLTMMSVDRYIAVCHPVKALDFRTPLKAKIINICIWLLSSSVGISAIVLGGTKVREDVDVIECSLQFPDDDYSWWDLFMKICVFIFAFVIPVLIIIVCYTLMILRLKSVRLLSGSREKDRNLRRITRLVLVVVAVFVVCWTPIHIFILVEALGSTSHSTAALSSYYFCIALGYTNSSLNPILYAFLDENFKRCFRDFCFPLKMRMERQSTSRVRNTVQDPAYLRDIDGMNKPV
TEST_NAME: KOR radioligand binding ([3H]-U69593, HEK293 cell homogenates)
Please treat pKi as minus the base-10 logarithm of the molar concentration.

Note to self: pKi recorded for C#Cc1ccc2c(c1)C(c1ccccc1F)=N[C@H](C)c1c(-c3nc(C)no3)ncn1-2 [MP-IV-004] was 6.35

GET /value?item= CCc1noc(-c2ncn3c2[C@@H](C)N=C(c2ccccc2F)c2cc(C4CC4)ccc2-3)n1 [GL-IV-03] &field=pKi returns 6.63

Recorded pKi (compound C#Cc1ccc2c(c1)C(c1ccccc1F)=N[C@H](C)c1c(-c3cnco3)ncn1-2 [GL-III-73] ): 6.35

Input C#Cc1ccc2c(c1)C(c1ccccc1F)=N[C@@H](C)c1c(-c3nc(C(C)C)no3)ncn1-2 [GL-I-81] . Output pKi: 6.90

response.value for Cc1noc(-c2ncn3c2[C@@H](C)N=C(c2ccccc2F)c2cc(C4CC4)ccc2-3)n1 [GL-III-63] (field: pKi) = 6.17

Value of measured pKi for the entry C#Cc1ccc2c(c1)C(c1ccccc1F)=N[C@H](C)c1c(-c3nc(C(C)C)no3)ncn1-2 [MP-IV-010] : 6.84

get_value(item= C[C@@H]1N=C(c2ccccc2F)c2cc(Br)ccc2-n2cnc(-c3cnco3)c21 [GL-III-76] , readout=pKi) returns 6.66

Note to self: pKi recorded for C#Cc1ccc2c(c1)C(c1ccccn1)=N[C@H](C)c1c(-c3nc(CC)no3)ncn1-2 [GL-II-54] was 6.30

The reported value for C#Cc1ccc2c(c1)C(c1ccccc1F)=N[C@@H](C)c1c(-c3nc(CC)no3)ncn1-2 [GL-I-66] in terms of pKi is 6.67

pKi in this record for CCOC(=O)c1ncn2c1[C@H](C)N=C(c1ccccc1F)c1cc(C3CC3)ccc1-2 [GL-I-78] : 7.32
